- System Tested: T1, recombinant human c-Met (human, UniProt P08581 25-932, limits assumed)
- T1 construct: Soluble recombinant protein: immobilised on the CM5 chip in Biacore, in solution in the equilibrium titration; The precursor is cleaved into disulfide-linked alpha and beta subunits; also called Hepatocyte Growth Factor Receptor
- T1 sequence (P08581 25-932 limits assumed): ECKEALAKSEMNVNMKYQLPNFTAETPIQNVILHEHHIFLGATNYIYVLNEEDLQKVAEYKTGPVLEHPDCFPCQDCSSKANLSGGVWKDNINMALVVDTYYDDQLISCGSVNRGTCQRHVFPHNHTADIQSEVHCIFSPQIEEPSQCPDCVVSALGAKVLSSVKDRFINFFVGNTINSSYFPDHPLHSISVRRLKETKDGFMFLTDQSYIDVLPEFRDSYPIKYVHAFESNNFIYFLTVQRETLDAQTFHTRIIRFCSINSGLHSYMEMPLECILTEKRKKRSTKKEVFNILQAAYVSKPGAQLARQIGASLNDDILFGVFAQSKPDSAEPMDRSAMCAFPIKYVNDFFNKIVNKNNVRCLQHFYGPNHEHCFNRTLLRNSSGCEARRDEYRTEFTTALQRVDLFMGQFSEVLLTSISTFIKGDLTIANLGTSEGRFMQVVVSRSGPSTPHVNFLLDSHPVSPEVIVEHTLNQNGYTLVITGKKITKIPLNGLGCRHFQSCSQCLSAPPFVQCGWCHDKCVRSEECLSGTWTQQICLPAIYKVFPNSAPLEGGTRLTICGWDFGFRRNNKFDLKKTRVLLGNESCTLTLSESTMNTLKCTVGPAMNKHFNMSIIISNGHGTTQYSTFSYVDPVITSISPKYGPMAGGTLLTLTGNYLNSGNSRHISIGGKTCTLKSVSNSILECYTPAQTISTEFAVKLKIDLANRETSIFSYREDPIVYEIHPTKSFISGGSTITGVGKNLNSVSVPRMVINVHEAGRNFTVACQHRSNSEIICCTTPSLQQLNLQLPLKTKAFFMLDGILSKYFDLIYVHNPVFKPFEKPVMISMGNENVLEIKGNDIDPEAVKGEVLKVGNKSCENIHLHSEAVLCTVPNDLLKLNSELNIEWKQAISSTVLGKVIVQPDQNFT
- Procedure Details: SPR (BIAcore), c-Met amine-coupled on CM5 chip, Fab 16-500 nM as analyte
Test Readout: Kd (nM)
// units = nM; emit number, no label

Guide cases for Kd, answers given:
{"Binder": "04537 (parental anti-cMet Fab antibody) (Fab, V domains shown, carries two C-terminal tags (FLAG and 6xHis)) VH: QVQLVQSGAEVKKPGESLKISCKGSGYSFSNYWIGWVRQMPGKGLEWMGFIFPDTSYTRYSPSFQGQVTISADKSISTAYLQWSSLKASDTAMYYCARVKLITDYWGQGTLVTVSS VL: DIELTQPPSVSVAPGQTARISCSGDSLRSYFVSWYQQKPGQAPVLVIYDDDDRPSGIPERFSGSNSGNTATLTISGTQAEDEADYYCASWDTLSDVEVFGGGTKLTVLG", "Kd [nM]": 1.7}
{"Binder": "04687 (parental anti-cMet Fab antibody) (Fab, V domains shown, carries two C-terminal tags (FLAG and 6xHis)) VH: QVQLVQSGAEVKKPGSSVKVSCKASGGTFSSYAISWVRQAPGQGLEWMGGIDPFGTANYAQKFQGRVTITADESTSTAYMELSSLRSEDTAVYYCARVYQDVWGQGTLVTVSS VL: DIVMTQSPDSLAVSLGERATINCRSSQSILYGINNNFLGWYQQKPGQPPKLLIYWASTRESGVPDRFSGSGSGTDFTLTISSLQAEDVAVYYCQQYYNHPHTFGQGTKVEIKR", "Kd [nM]": 0.8}
{"Binder": "04541 (parental anti-cMet Fab antibody) (Fab, V domains shown, carries two C-terminal tags (FLAG and 6xHis)) VH: QVQLQESGPGLVKPGETLSLTCTVSGGSISSSSYYWNWIRQAPGKGLEWIGEIYFGWTYYNPSLKGRVTISVDTSKNQFSLKLSSVTAEDTAVYYCARGYEFHGYTTFDYWGQGTLVTVSS VL: DIELTQPPSVSVAPGQTARISCSGDNIGSYYVYWYQQKPGQAPVLVIYDDNDRPSGIPERFSGSNSGNTATLTISGTQAEDEADYYCQSYDFPSIVFGGGTKLTVLG", "Kd [nM]": 2.6}

Next:
Look up Kd for this binder: 04536 (parental anti-cMet Fab antibody) (Fab, V domains shown, carries two C-terminal tags (FLAG and 6xHis)) VH: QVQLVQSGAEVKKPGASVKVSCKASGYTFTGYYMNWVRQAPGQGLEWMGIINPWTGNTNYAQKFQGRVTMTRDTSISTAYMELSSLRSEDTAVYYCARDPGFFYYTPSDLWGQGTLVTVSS VL: DIELTQPPSVSVAPGQTARISCSGDSIGNKYVHWYQQKPGQAPVLVIYADSDRPSGIPERFSGSNSGNTATLTISGTQAEDEADYYCQAYDSSMLRVFGGGTKLTVLG
1.4
